Experiment: Absorption and emission properties of HBR-binding PYP variants in presence of HBR
Format: physicochemical
Conditions: variant with HBR, PBS pH 7.4
Answer each item with its documented λabs.
Numbers only, in nm.

>  <molecule>
Clone 3: best fluorescent HBR-binding PYP variant, SEQ ID NO: 3, residues 94-101 WMIPTSRG (protein, Functional derivative of SEQ ID NO: 48 - Clone 3) MEHVAFGSEDIENTLAKMDDGQLDGLAFGAIQLDGDGNILQYNAAEGDITGRDPKQVIGKNFFKDVAPGTDSPEFYGKFKEGVASGNLNTMFEWMIPTSRGPTKVKVHMKKALSGDSYWVFVKRV

>  <unit.abbreviation>
nm

>  <test.value>
467

$$$$

// next item, λabs requested
Fill in λabs for record Clone 5: fluorescent HBR-binding PYP variant, SEQ ID NO: 5, residues 94-101 WRIPTECA (protein, Functional derivative of SEQ ID NO: 48 - Clone 5) MEHVAFGSEDIENTLAKMDDGQLDGLAFGAIQLDGDGNILQYNAAEGDITGRDPKQVIGKNFFKDVAPGTDSPEFYGKFKEGVASGNLNTMFEWRIPTECAPTKVKVHMKKALSGDSYWVFVKRV 468
